// data source = patent US20260184782A1

system_name: T1, human TIGIT-Fc (human, UniProt Q495A1 22-141, limits assumed)
T1 construct: not shown: Fc; not described
T1 sequence (looked up): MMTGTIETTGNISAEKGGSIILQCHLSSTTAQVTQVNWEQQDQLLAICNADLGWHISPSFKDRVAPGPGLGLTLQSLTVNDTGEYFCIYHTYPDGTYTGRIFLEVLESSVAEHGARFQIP
protocol_notes: CD155 competition ELISA, single point; further: test concentration or dose not given here
Classification field: t = OD (450 nm) at or over 0.5 OD; f = OD (450 nm) under 0.5 OD.

binder: TIGIT-SC214 (Fc fusion, VHH-Fc) VHH: EVQLVESGGGLVQPGGSLRLSCAASGFTFGDSWMGWFRQAPGKEHEFVAAIWRSGTLKAYADSVKGRFTISADNSKNTAYLQMNSLKPEDTAVYYCTSYDAVAGTRDFWGQGTLVTVSS
class_assignment: t

binder: TIGIT-SC147 (Fc fusion, VHH-Fc) VHH: EVQLVESGGGLVQPGGSLRLSCAASGTITSAVFMGWFRQAPGKEREFVAAVIWRGGSLKSYADSVKGRFTISADNSKNTAYLQMNSLKPEDTAVYYCAKLAVAGNYYYYGMDVWGQGTLVTVSS
class_assignment: t

binder: TIGIT-SC36 (Fc fusion, VHH-Fc) VHH: EVQLVESGGGLVQPGGSLRLSCAASGNTFNFNVMGWFRQAPGKEREAVASIWRSGGNTYYADSVKGRFTISADNSKNTAYLQMNSLKPEDTAVYYCARDLEWRPYYMDVWGQGTLVTVSS
class_assignment: f

binder: TIGIT-SC73 (Fc fusion, VHH-Fc) VHH: EVQLVESGGGLVQPGGSLRLSCAASGSSFSLADYAMGWFRQAPGKEREFVAAISYNVGTTYYADSVKGRFTISADNSKNTAYLQMNSLKPEDTAVYYCARWSAKRHSDTMTYYMDVWGQGTLVTVSS
class_assignment: f

binder: TIGIT-SC103 (Fc fusion, VHH-Fc) VHH: EVQLVESGGGLVQPGGSLRLSCAASGTITSAVFMGWFRQAPGKEREFVAAISWSGGDTNYADSVKGRFTISADNSKNTAYLQMNSLKPEDTAVYYCARWGGITFGGVYPLDYWGQGTLVTVSS
class_assignment: t

binder: TIGIT-SC204 (Fc fusion, VHH-Fc) VHH: EVQLVESGGGLVQPGGSLRLSCAASGFLFNSYWMVWFRQAPGKEREFVAAIWRSGTLKAYADSVKGRFTISADNSKNTAYLQMNSLKPEDTAVYYCAADVNYGSTWRNWGQGTLVTVSS
class_assignment: f

binder: TIGIT-SC188 (Fc fusion, VHH-Fc) VHH: EVQLVESGGGLVQPGGSLRLSCAASGNTFSGGFMGWFRQAPGKEREWVASVLRGGYTWYADSVKGRFTISADNSKNTAYLQMNSLKPEDTAVYYCTTDSLPGWGQGTLVTVSS
class_assignment: t

binder: TIGIT-SC168 (Fc fusion, VHH-Fc) VHH: EVQLVESGGGLVQPGGSLRLSCAASGFTFDRSWMGWFRQAPGKEREWVASVLRGGYAWYADSVKGRFTISADNSKNTAYLQMSSLKPEDTAVYYCAREGSGYASDYWGQGTLVTVSS
class_assignment: f

binder: TIGIT-SC9 (Fc fusion, VHH-Fc) VHH: EVQLVESGGGLVQPGGSLRLSCAASGNTFSGGFMGWFRQAPGKEREWVASVLRGGYTWYADSVKGRFTISADNSKNTAYLQMNSLKPEDTAVYYCVNGYSYGRDYWGQGTLVTVSS
class_assignment: t

binder: TIGIT-SC171 (Fc fusion, VHH-Fc) VHH: EVQLVESGGGLVQPGGSLRLSCAASGFTFDRSWMGWFRQAPGKEREWVASVLRGGYTWYADSVKGRFTISADNSKNTAYLQMNSLKPEDTAVYYCATERRLGVWGQGTLVTVSS
class_assignment: t

binder: TIGIT-SC213 (Fc fusion, VHH-Fc) VHH: EVQLVESGGGLVQPGGSLRLSCAASGTFQRINAMGWFRQAPGKEREFVAAIWRSGTLKAYADSVKGRFTISADNSKNTAYLQMNSLKPEDTAVYYCARWVGASGDYWIDYWGQGTLVTVSS
class_assignment: t

binder: TIGIT-SC35 (Fc fusion, VHH-Fc) VHH: EVQLVESGGGLVQPGGSLRLSCAASGFTLENNMMGWFRQAPGKERELVAAISMSGDDTIYADSVKGRFTISADNSKNTAYLQMNSLKPEDTAVYYCARQGDTVMVSGIDYWGQGTLVTVSS
class_assignment: f
